Field: Indel efficiency (%) Cas12f1 ver4.0. Provide a value for each of the sequences that follow.
system: USH2A gene (F region and R region of exon 13); experiment: Indel efficiency of USH2A guide RNA expression cassettes by next generation sequencing (NGS); assay type: cell-based, human; parameters: concentration or dose not given beside the values; conditions: scaffold Cas12f1 ver4.0 (SEQ ID NO: 316); expression cassette; NGS
Give bare numbers, in %.

| monomer-sequence | metric | unit-symbol | measured |
| --- | --- | --- | --- |
| ACAGUGAUGAAUGACUCACC (expressed or natural sequence) [GUIDE-USH2A-FA10] | Indel efficiency (%) Cas12f1 ver4.0 | % | 1.52 |

Consider the following items and state reported Indel efficiency (%) Cas12f1 ver4.0 for each.
1. CUUAGAAAGAAGGAUGUAUA (expressed or natural sequence) [GUIDE-USH2A-R40]
2. UAUAGAAAUACCUAGAAUUG (expressed or natural sequence) [GUIDE-USH2A-R10]
3. GCAUUGGUCAGUGUGUAAGA (expressed or natural sequence) [GUIDE-USH2A-R22]

Solution:
[21.35, 1.20, 16.03]

* * *

system: USH2A gene (F region and R region of exon 13); experiment: Indel efficiency of USH2A guide RNA expression cassettes by next generation sequencing (NGS); format: cell-based, human; design: concentration or dose not given beside the values; conditions: scaffold Cas12f1 ver4.1 (SEQ ID NO: 317); expression cassette; NGS
# strict inequality: Indel efficiency (%) Cas12f1 ver4.1 < 8% yields Criterion met, everything else yields Criterion not met

Solved entries:
| monomer-sequence | qualitative-label |
| --- | --- |
| UGUCUCGUCUAUCUUGAAUG (expressed or natural sequence) [GUIDE-USH2A-F02] | Criterion met |
| UAAUGUGUACAUAUAUCAAA (expressed or natural sequence) [GUIDE-USH2A-F16] | Criterion not met |
| ACAGUGAUGAAUGACUCACC (expressed or natural sequence) [GUIDE-USH2A-FA10] | Criterion met |
| AAUAUGCCAUACAUAUUCC (expressed or natural sequence) [GUIDE-USH2A-FA20] | Criterion met |
| AGAGUAAGAUUGGCCCCCUA (expressed or natural sequence) [GUIDE-USH2A-F05] | Criterion met |

Next sequence, please.
Problem: Please let me know if UGUUCGUAUCAUCUGCAGUA (expressed or natural sequence) [GUIDE-USH2A-F03] shows Indel efficiency (%) Cas12f1 ver4.1 below 8%.
Solution: Criterion not met

* * *

system: USH2A gene (F region and R region of exon 13); test: Indel efficiency of USH2A guide RNA expression cassettes by next generation sequencing (NGS); assay type: cell-based, human; parameters: concentration or dose not given beside the values; settings: scaffold Cas12f1 ver3.0 (SEQ ID NO: 315); expression cassette; NGS
metric: Indel efficiency (%) Cas12f1 ver3.0

Known results for sequences:
| monomer-sequence | metric | measured |
| --- | --- | --- |
| AAUAUGCCAUACAUAUUCC (expressed or natural sequence) [GUIDE-USH2A-FA20] | Indel efficiency (%) Cas12f1 ver3.0 | 2.78% |
| ACAGUGAUGAAUGACUCACC (expressed or natural sequence) [GUIDE-USH2A-FA10] | Indel efficiency (%) Cas12f1 ver3.0 | 4.41% |
| AUUAUACCUUCGUGAAGCUG (expressed or natural sequence) [GUIDE-USH2A-F17] | Indel efficiency (%) Cas12f1 ver3.0 | 0.02% |
| GCAUUGGUCAGUGUGUAAGA (expressed or natural sequence) [GUIDE-USH2A-R22] | Indel efficiency (%) Cas12f1 ver3.0 | 6.32% |
| CUUGCCAGAGAAGGAGUAGA (expressed or natural sequence) [GUIDE-USH2A-R19] | Indel efficiency (%) Cas12f1 ver3.0 | 26.08% |

In the following, a different sequence is considered.
Indel efficiency (%) Cas12f1 ver3.0 in this record for UAGACCCAUAUAACUCAGAG (expressed or natural sequence) [GUIDE-USH2A-R18] : 0.46%

* * *

test system: USH2A gene (F region and R region of exon 13); assay: Indel efficiency of USH2A guide RNA expression cassettes by next generation sequencing (NGS); type: cell-based, human; design: concentration or dose not given beside the values; conditions: scaffold Cas12f1 ver4.1 (SEQ ID NO: 317); expression cassette; NGS
Field: Indel efficiency (%) Cas12f1 ver4.1. Provide a value for each of the sequences that follow.
Numbers only, in %.

Known results for sequences:
| monomer-sequence | Indel efficiency (%) Cas12f1 ver4.1 |
| --- | --- |
| UCCAUAUAUAUACAUAUAUA (expressed or natural sequence) [GUIDE-USH2A-FA12] | 1.29 |
| AUUAUACCUUCGUGAAGCUG (expressed or natural sequence) [GUIDE-USH2A-F17] | 0.18 |
| CUUGCCAGAGAAGGAGUAGA (expressed or natural sequence) [GUIDE-USH2A-R19] | 9.48 |

Indel efficiency (%) Cas12f1 ver4.1 in this record for GCAUUGGUCAGUGUGUAAGA (expressed or natural sequence) [GUIDE-USH2A-R22] : 15.79

* * *

system: USH2A gene (F region and R region of exon 13); test: Indel efficiency of USH2A guide RNA expression cassettes by next generation sequencing (NGS); type: cell-based, human; parameters: concentration or dose not given beside the values; details: scaffold Cas12f1 ver3.0 (SEQ ID NO: 315); expression cassette; NGS
Field: Indel efficiency (%) Cas12f1 ver3.0. Provide a value for each of the sequences that follow.
Give bare numbers, in %.

| monomer-sequence | Indel efficiency (%) Cas12f1 ver3.0 |
| --- | --- |
| AGAGUAAGAUUGGCCCCCUA (expressed or natural sequence) [GUIDE-USH2A-F05] | 0.64 |
| UAAUGUGUACAUAUAUCAAA (expressed or natural sequence) [GUIDE-USH2A-F16] | 4.19 |
| UCCAUAUAUAUACAUAUAUA (expressed or natural sequence) [GUIDE-USH2A-FA12] | 4.61 |
| UUUCUUUGCCUUGUAAUACC (expressed or natural sequence) [GUIDE-USH2A-F24] | 0.04 |
| UGUUCGUAUCAUCUGCAGUA (expressed or natural sequence) [GUIDE-USH2A-F03] | 4.88 |
| UAUAGAAAUACCUAGAAUUG (expressed or natural sequence) [GUIDE-USH2A-R10] | 1.65 |

Consider the following items and state reported Indel efficiency (%) Cas12f1 ver3.0 for each.
1. UGUCUCGUCUAUCUUGAAUG (expressed or natural sequence) [GUIDE-USH2A-F02]
2. GGGUGAGAACAUUUAAGAUC (expressed or natural sequence) [GUIDE-USH2A-F15]

Solution:
1
0.55

* * *

system: USH2A gene (F region and R region of exon 13); test: Indel efficiency of USH2A guide RNA expression cassettes by next generation sequencing (NGS); assay type: cell-based, human; parameters: concentration or dose not given beside the values; settings: scaffold Cas12f1 ver4.0 (SEQ ID NO: 316); expression cassette; NGS
Use 0.6% as the dividing line for Indel efficiency (%) Cas12f1 ver4.0, with the line itself on the TRUE side and lower values as FALSE.

Solved entries:
| monomer-sequence | system | qualitative-label |
| --- | --- | --- |
| UGUCUCGUCUAUCUUGAAUG (expressed or natural sequence) [GUIDE-USH2A-F02] | USH2A gene (F region and R region of exon 13) | FALSE |
| UAAUUCUACCACCAGCCACA (expressed or natural sequence) [GUIDE-USH2A-R26] | USH2A gene (F region and R region of exon 13) | TRUE |
| UGUUCGUAUCAUCUGCAGUA (expressed or natural sequence) [GUIDE-USH2A-F03] | USH2A gene (F region and R region of exon 13) | TRUE |
| ACUGUGUAGGAGACAAAGGA (expressed or natural sequence) [GUIDE-USH2A-R36] | USH2A gene (F region and R region of exon 13) | TRUE |
| UAAUGUGUACAUAUAUCAAA (expressed or natural sequence) [GUIDE-USH2A-F16] | USH2A gene (F region and R region of exon 13) | TRUE |

Next sequence, please.
Problem: For this sequence, is measured Indel efficiency (%) Cas12f1 ver4.0 0.6% or higher? AAUAUGCCAUACAUAUUCC (expressed or natural sequence) [GUIDE-USH2A-FA20]
Solution: FALSE

* * *

Field: indel efficiency. Provide a value for each of the sequences that follow.
System: USH2A gene
Experiment: Indel efficiency depending on length of the guide sequence
Type: cell-based, human
Details: highest value by guide length: F16 22mer, FA12 20mer, R19 24mer, R40 20mer; ver4.1 scaffold for F16, FA12, ver4.0 for R19, R40
Source text: Each guide sequence (F16, FA12, R19, R40) selected through Examples 2 and 3 was modified to have a guide sequence of 19- to 25-mer length based on the PAM adjacent to the protospacer sequence, and vectors expressing the same were produced, respectively, to compare the indel efficiency depending on a length of the guide sequence. As for the scaffold sequence, Cas12f1 ver4.1 was used for F16 and FA12, and Cas12f1 ver4.0 was used for R19 and R40, as selected in Example 2.2. […]
Give bare numbers, in %.

Known results for sequences:
| monomer-sequence | unit-symbol | indel efficiency |
| --- | --- | --- |
| UAAUGUGUACAUAUAUCAAAAC (expressed or natural sequence) [GUIDE-USH2A-F16-22 mer] | % | 73 |
| UCCAUAUAUAUACAUAUAUA (expressed or natural sequence) [GUIDE-USH2A-FA12] | % | 72.19 |

Consider the following items and state reported indel efficiency for each.
1. CUUGCCAGAGAAGGAGUAGAACAA (expressed or natural sequence) [GUIDE-USH2A-R19-24 mer]
2. CUUAGAAAGAAGGAUGUAUA (expressed or natural sequence) [GUIDE-USH2A-R40]

Solution:
1: 83; 2: 73.99
